Assay: Plasma concentrations of EC-18 in non-irradiated and irradiated mice
Type: in vivo
Conditions: male, Balb/c, mouse, po, 100 mg/kg, day 14, 100 mg/kg oral daily, Non-irradiated
quantity: Cmax (ng/mL)
Give bare numbers, in ng/mL.

Find the measured Cmax of CCCCC/C=C\C/C=C\CCCCCCCC(=O)OC(COC(C)=O)COC(=O)CCCCCCCCCCCCCCC (stereo not shown) and report it.
12.8

----------
Test: Plasma concentrations of EC-18 in non-irradiated and irradiated mice
Assay type: in vivo
Conditions: male, Balb/c, mouse, po, 250 mg/kg, day 14, 250 mg/kg oral daily, Non-irradiated
quantity: Cmax (ng/mL)
One number for each entry, in ng/mL.

Please look at this compound and report its Cmax: CCCCC/C=C\C/C=C\CCCCCCCC(=O)OC(COC(C)=O)COC(=O)CCCCCCCCCCCCCCC (stereo not shown) [EC-18, 1-palmitoyl-2-linoleoyl-3-acetylglycerol]
19.4

----------
Test: Plasma and lymphatic concentrations of EC-18 in beagle dogs after single administration
Assay type: in vivo, dog
Settings: male, beagle, dog; 2000 mg/kg po; Lymph
quantity: AUC(0-t)
Entry format: amount then unit.

Consider the molecule CCCCC/C=C\C/C=C\CCCCCCCC(=O)OC(COC(C)=O)COC(=O)CCCCCCCCCCCCCCC (stereo not shown) and give its recorded AUC(0-t).
389 µg·h/mL

----------
Assay: Plasma and lymphatic concentrations of EC-18 in beagle dogs after single administration
Type: in vivo, dog
Settings: male, beagle, dog; 4000 mg/kg po; Plasma
quantity: AUC(0-t) (ng·h/mL)
One number for each entry, in ng·h/mL.

Supply recorded AUC(0-t) for CCCCC/C=C\C/C=C\CCCCCCCC(=O)OC(COC(C)=O)COC(=O)CCCCCCCCCCCCCCC (stereo not shown) [EC-18, 1-palmitoyl-2-linoleoyl-3-acetylglycerol] here.
71100

----------
Assay: Repeated dose toxicity, SD rat
Format: in vivo
Settings: SD, rat, in vivo; Oral; 26 weeks (4-week recovery)
quantity: NOAEL at 26 weeks

Give the reported NOAEL at 26 weeks for this compound. CCCCC/C=C\C/C=C\CCCCCCCC(=O)OC(COC(C)=O)COC(=O)CCCCCCCCCCCCCCC (stereo not shown)
> 2000 mg/kg/day

----------
Experiment: Repeated dose toxicity, Beagle dog
Assay type: in vivo
Conditions: Beagle, dog, in vivo; Oral; 4 weeks (2-week recovery)
quantity: NOAEL at 4 weeks

Give the reported NOAEL at 4 weeks for this compound. CCCCC/C=C\C/C=C\CCCCCCCC(=O)OC(COC(C)=O)COC(=O)CCCCCCCCCCCCCCC (stereo not shown)
> 2000 mg/kg/day

----------
Target: OAT1 (Homo sapiens)
Sequence (Q4U2R8 1-563): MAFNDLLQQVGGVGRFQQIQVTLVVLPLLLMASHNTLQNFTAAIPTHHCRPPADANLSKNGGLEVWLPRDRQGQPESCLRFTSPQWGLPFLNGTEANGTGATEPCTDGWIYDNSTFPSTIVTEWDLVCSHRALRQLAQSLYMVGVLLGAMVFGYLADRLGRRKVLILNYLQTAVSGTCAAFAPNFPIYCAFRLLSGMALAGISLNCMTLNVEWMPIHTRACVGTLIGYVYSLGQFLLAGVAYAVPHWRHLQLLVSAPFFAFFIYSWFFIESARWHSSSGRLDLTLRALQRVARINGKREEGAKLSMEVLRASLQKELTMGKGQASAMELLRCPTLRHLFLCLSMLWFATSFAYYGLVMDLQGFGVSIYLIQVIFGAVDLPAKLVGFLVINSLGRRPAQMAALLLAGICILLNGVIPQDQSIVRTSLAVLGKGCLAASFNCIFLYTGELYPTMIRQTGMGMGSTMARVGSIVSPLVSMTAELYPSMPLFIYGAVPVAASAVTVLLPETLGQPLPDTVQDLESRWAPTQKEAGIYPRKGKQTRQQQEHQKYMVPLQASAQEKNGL
pIC50: −log10 of the molar value.
quantity: pIC50

Note pIC50 for the compound shown: CCCCC/C=C\C/C=C\CCCCCCCC(=O)OC(COC(C)=O)COC(=O)CCCCCCCCCCCCCCC (stereo not shown) [EC-18, 1-palmitoyl-2-linoleoyl-3-acetylglycerol]
< 4.49

Source: patent US12076307B2
